Provenance of the data: paper PMC9481563

- testSystem: PIK3R1 (p85) N-terminal SH2 domain (321-433) (human, UniProt P27986 321-433)
- Sequence (P27986 321-433): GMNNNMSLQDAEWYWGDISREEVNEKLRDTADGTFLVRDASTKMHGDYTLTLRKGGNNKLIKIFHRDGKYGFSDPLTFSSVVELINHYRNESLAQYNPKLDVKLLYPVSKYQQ
- assayInfo: FP
Where no end group is shown, it is not given here. [ ]: non-standard residue; d: D form. pY = N[C@@H](Cc1ccc(OP(=O)(O)O)cc1)C(=O)O; pT = C[C@@H](OP(=O)(O)O)[C@H](N)C(=O)O
measuredQuantity: Kd (nM)
Please give a number only; it is taken to be in nM.

RSRLLHSD[pY]MNM[pT]PRR [ppCD28, CD28 peptide dually phosphorylated (pY191 + pT195)]: 285

Query: So what's the measured Kd for this one? GRKGSGDYMPMSPKS (phosphotyrosine at Y632; phosphoserine at S636; C-terminal lysine-ε-carboxyfluorescein label) [CF-ppIRS1, carboxyfluorescein-labelled pY632 + pS636 IRS1 peptide]
Response: 383

Query: Follow-up entry: RSRLLHSD[pY]MNMTPRR [p0CD28, CD28 peptide with phosphotyrosine only (pY191)]
Response: 104
